Quick record: Ki, cloned human P2Y1 receptors (Homo sapiens, UniProt P47900).
Counter-ions that a name gives are not always drawn.
quantity: Ki (nM)

{"compound": "CC(C)c1ccccc1-c1cn(C(=O)Nc2ccc(I)cc2)c2ccccc12", "Ki (nM)": 96}
{"compound": "CC(C)c1ccccc1-c1cn(C(=O)Nc2ccccc2)c2ccccc12", "Ki (nM)": 75}

(P) CC(C)c1ccccc1-c1cn(C(=O)Nc2ccc(N(C)C)cc2)c2ccccc12 [Example 12, trifluoroacetic acid salt]
(Q) CN(C)Cc1ccccc1-c1cn(C(=O)Nc2ccc(OC(F)(F)F)cc2)c2ccccc12 [Example 33, trifluoroacetic acid) salt]
Ask | Which value of Ki is numerically greater: that of P or that of Q ? Answer format: the label of the selected item.
Reply | Q
(Q: 1300 nM, P: 117 nM)
